These data points were gathered from ChEMBL document CHEMBL1132456.

# key: entry, value: pKi
Target: Human immunodeficiency virus type 1 reverse transcriptase (Human immunodeficiency virus 1, UniProt Q72547, Y188L)
Assay: In vitro inhibitory activity against HIV-1 mutant Reverse transcriptase containing the single amino acid substitution Y188L
pKi: −log10 of the molar value.
METRIC: pKi

COMPOUND	METRIC	BOUND_SIGN	VALUE
CCC1(c2cccc(C)c2)Oc2cccnc2-n2cccc2C1=O (stereo unspecified)	pKi	=	5.82
CCC1(c2cccc(OC)c2)Oc2ccccc2-n2cccc2C1=O (stereo unspecified)	pKi	<	5.00
CCC1(c2cc(F)cc(F)c2)Oc2ccccc2-n2cccc2C1=O (stereo unspecified)	pKi	<	5.00
CCC1(c2cccc(F)c2)Oc2ccccc2-n2cccc2C1=O (stereo unspecified)	pKi	=	5.82
CCC1(c2cccc(C)c2)Oc2ccccc2-n2cccc2C1=O (stereo unspecified)	pKi	=	5.72
CCC1(c2ccccc2)Oc2ccccc2-n2cccc2C1=O (stereo unspecified)	pKi	<	5.00

###

Target: Human immunodeficiency virus type 1 reverse transcriptase (Human immunodeficiency virus 1, UniProt Q72547, L100I)
Assay: In vitro inhibitory activity against HIV-1 mutant Reverse transcriptase containing the single amino acid substitution L100I

COMPOUND	Ki
CCC1(c2cccs2)Oc2cccnc2-n2cccc2C1=O (centres undefined)	90 nM
CCC1(c2ccccc2)Oc2cccnc2-n2cccc2C1=O (centres undefined)	40 nM
CCC1(c2ccccc2)Oc2ccccc2-n2cccc2C1=O (centres undefined)	750 nM
CCC1(c2cccc(OC)c2)Oc2ccccc2-n2cccc2C1=O (centres undefined)	11 nM
CCC1(c2cccc(F)c2)Oc2ccccc2-n2cccc2C1=O (centres undefined)	160 nM
CCC1(c2cccs2)Oc2ccccc2-n2cccc2C1=O (centres undefined)	70 nM
CCC1(c2cccc(C)c2)Oc2cccnc2-n2cccc2C1=O (centres undefined)	44 nM
CCC1(c2cc(F)cc(F)c2)Oc2ccccc2-n2cccc2C1=O (centres undefined)	1700 nM
CCC1(c2cccc(C)c2)Oc2ccccc2-n2cccc2C1=O (centres undefined)	100 nM

###

Assay: The compound was tested for cytotoxicity against NSO murine cell lines.
Assay type: cell-based
Details: mouse, NSO cells; read-out: TC50 (the source's name)

MOLECULE	UNITS_LABEL	CC50
CCC1(c2ccccc2)Oc2ccccc2-n2cccc2C1=O (stereo unspecified)	µM	24

###

# CC50 values compiled below
Experiment: The compound was tested for cytotoxicity against Daudi human cell line.
Type: cell-based
Details: Daudi cells, read-out: TC50 (the source's name)
METRIC: CC50 (µM)

COMPOUND	BOUND_SIGN	VALUE
CCC1(c2cccc(F)c2)Oc2ccccc2-n2cccc2C1=O (configuration not stated)	=	720
CCC1(c2ccccc2)Oc2cccnc2-n2cccc2C1=O (configuration not stated)	=	13
CCC1(c2cccs2)Oc2cccnc2-n2cccc2C1=O (configuration not stated)	=	29
CCC1(c2cccc(C)c2)Oc2ccccc2-n2cccc2C1=O (configuration not stated)	>	1000
CCC1(c2cccc(C)c2)Oc2cccnc2-n2cccc2C1=O (configuration not stated)	=	380
CCC1(c2ccccc2)Oc2ccccc2-n2cccc2C1=O (configuration not stated)	=	26
CCC1(c2cccc(OC)c2)Oc2ccccc2-n2cccc2C1=O (configuration not stated)	=	280

###

Experiment: The compound was tested for cytotoxicity against 3T3 fibroblast murine cell line.
Type: cell-based
Details: mouse, NIH3T3 fibroblast cells; read-out: TC50 (the source's name)
METRIC: log10(CC50) (log10 of the value in µM)

COMPOUND	VALUE
CCC1(c2ccccc2)Oc2cccnc2-n2cccc2C1=O (configuration not stated)	1.00
CCC1(c2cccc(F)c2)Oc2ccccc2-n2cccc2C1=O (configuration not stated)	2.85
CCC1(c2ccccc2)Oc2ccccc2-n2cccc2C1=O (configuration not stated)	1.52
CCC1(c2cccs2)Oc2cccnc2-n2cccc2C1=O (configuration not stated)	1.54
CCC1(c2cccc(C)c2)Oc2cccnc2-n2cccc2C1=O (configuration not stated)	2.60
CCC1(c2cccc(OC)c2)Oc2ccccc2-n2cccc2C1=O (configuration not stated)	2.32

###

Target: Human immunodeficiency virus type 1 reverse transcriptase (Human immunodeficiency virus 1, UniProt Q72547, V106A)
Test: In vitro inhibitory activity against HIV-1 mutant Reverse transcriptase containing the single amino acid substitution V106A
METRIC: log10 Ki (log10 of the value in nM)

COMPOUND	METRIC	VALUE
CCC1(c2ccccc2)Oc2cccnc2-n2cccc2C1=O (centres undefined)	log10 Ki	1.85
CCC1(c2cc(F)cc(F)c2)Oc2ccccc2-n2cccc2C1=O (centres undefined)	log10 Ki	3.48
CCC1(c2cccs2)Oc2ccccc2-n2cccc2C1=O (centres undefined)	log10 Ki	2.04
CCC1(c2cccc(C)c2)Oc2cccnc2-n2cccc2C1=O (centres undefined)	log10 Ki	2.60
CCC1(c2ccccc2)Oc2ccccc2-n2cccc2C1=O (centres undefined)	log10 Ki	3.59
CCC1(c2cccc(F)c2)Oc2ccccc2-n2cccc2C1=O (centres undefined)	log10 Ki	2.60
CCC1(c2cccs2)Oc2cccnc2-n2cccc2C1=O (centres undefined)	log10 Ki	1.95
CCC1(c2cccc(C)c2)Oc2ccccc2-n2cccc2C1=O (centres undefined)	log10 Ki	2.40
CCC1(c2cccc(OC)c2)Oc2ccccc2-n2cccc2C1=O (centres undefined)	log10 Ki	1.00

###

Tested on: Human immunodeficiency virus 3
Assay: The compound was tested for Anti-viral activity of compound alone in C8166 cells infected with HIV-IIIB
Format: functional, organism-based
Settings: Human immunodeficiency virus 1, IIIB
METRIC: EC50

COMPOUND	TESTED_ON	VALUE
CCC1(c2ccccc2)Oc2cccnc2-n2cccc2C1=O (configuration not stated)	Human immunodeficiency virus 3	54 nM
CCC1(c2cccc(C)c2)Oc2ccccc2-n2cccc2C1=O (configuration not stated)	Human immunodeficiency virus 3	425 nM

###

Tested on: CEM-SS
Assay: The compound was tested for inhibition against HIV-1 from CEM-SS cell lines
Type: functional, cell-based
Details: Homo sapiens

COMPOUND	IC50 / nM
CCC1(c2cccc(F)c2)Oc2ccccc2-n2cccc2C1=O (stereo unspecified)	2000

###

Target: Human immunodeficiency virus type 1 reverse transcriptase (Human immunodeficiency virus 1, UniProt Q72547, K103N)
Assay: In vitro inhibitory activity against HIV-1 mutant Reverse transcriptase containing the single amino acid substitution K103N
pKi: −log10 of the molar value.
# pKi >= 7 gives 1, anything below gives 0

COMPOUND	GROUP_LABEL
CCC1(c2ccccc2)Oc2ccccc2-n2cccc2C1=O (stereo unspecified)	0
CCC1(c2cccc(C)c2)Oc2ccccc2-n2cccc2C1=O (stereo unspecified)	0
CCC1(c2cccs2)Oc2ccccc2-n2cccc2C1=O (stereo unspecified)	0
CCC1(c2cccc(C)c2)Oc2cccnc2-n2cccc2C1=O (stereo unspecified)	1
CCC1(c2ccccc2)Oc2cccnc2-n2cccc2C1=O (stereo unspecified)	0

###

Biological target: Human immunodeficiency virus type 1 reverse transcriptase (Human immunodeficiency virus 1, UniProt Q72547, Y181I)
Test: In vitro inhibitory activity against HIV-1 mutant Reverse transcriptase containing the single amino acid substitution Y181I

COMPOUND	BOUND_SIGN	Ki, µM
CCC1(c2cccc(F)c2)Oc2ccccc2-n2cccc2C1=O (centres undefined)	=	4
CCC1(c2cccc(C)c2)Oc2ccccc2-n2cccc2C1=O (centres undefined)	=	4
CCC1(c2ccccc2)Oc2cccnc2-n2cccc2C1=O (centres undefined)	=	4
CCC1(c2cccs2)Oc2cccnc2-n2cccc2C1=O (centres undefined)	=	0.43
CCC1(c2cccs2)Oc2ccccc2-n2cccc2C1=O (centres undefined)	=	0.97
CCC1(c2ccccc2)Oc2ccccc2-n2cccc2C1=O (centres undefined)	>	10
CCC1(c2cc(F)cc(F)c2)Oc2ccccc2-n2cccc2C1=O (centres undefined)	=	6.8
CCC1(c2cccc(C)c2)Oc2cccnc2-n2cccc2C1=O (centres undefined)	=	1.2
CCC1(c2cccc(OC)c2)Oc2ccccc2-n2cccc2C1=O (centres undefined)	>	10

###

Measured pKi by item
Biological target: Human immunodeficiency virus type 1 reverse transcriptase (Human immunodeficiency virus 1, UniProt Q72547, K103N)
Assay: In vitro inhibitory activity against HIV-1 mutant Reverse transcriptase containing the single amino acid substitution K103N
pKi: −log10 of the molar value.
METRIC: pKi

COMPOUND	VALUE
CCC1(c2cc(F)cc(F)c2)Oc2ccccc2-n2cccc2C1=O (stereo not drawn)	5.57
CCC1(c2cccc(OC)c2)Oc2ccccc2-n2cccc2C1=O (stereo not drawn)	7.66
CCC1(c2cccs2)Oc2cccnc2-n2cccc2C1=O (stereo not drawn)	7.35

###

Target: Human immunodeficiency virus type 1 reverse transcriptase (Human immunodeficiency virus 1, UniProt Q72547, Y188L)
Experiment: In vitro inhibitory activity against HIV-1 mutant Reverse transcriptase containing the single amino acid substitution Y188L
pKi: −log10 of the molar value.
Recorded pKi, one value per entry.
METRIC: pKi

COMPOUND	VALUE
CCC1(c2cccs2)Oc2ccccc2-n2cccc2C1=O (stereo not drawn)	6.52
CCC1(c2cccs2)Oc2cccnc2-n2cccc2C1=O (stereo not drawn)	6.32
CCC1(c2ccccc2)Oc2cccnc2-n2cccc2C1=O (stereo not drawn)	5.82

###

Below: a set of entries, each annotated with reported CC50.
Test: The compound was tested for cytotoxicity against Human Lymphocytes
Settings: read-out: TC50 (the source's name)
METRIC: CC50 (µM)

MOLECULE	METRIC	BOUND_SIGN	VALUE
CCC1(c2cccs2)Oc2cccnc2-n2cccc2C1=O (configuration not stated)	CC50	=	30
CCC1(c2ccccc2)Oc2ccccc2-n2cccc2C1=O (configuration not stated)	CC50	=	32
CCC1(c2ccccc2)Oc2cccnc2-n2cccc2C1=O (configuration not stated)	CC50	=	13
CCC1(c2cccc(F)c2)Oc2ccccc2-n2cccc2C1=O (configuration not stated)	CC50	=	720
CCC1(c2cccc(C)c2)Oc2cccnc2-n2cccc2C1=O (configuration not stated)	CC50	=	400
CCC1(c2cccc(OC)c2)Oc2ccccc2-n2cccc2C1=O (configuration not stated)	CC50	=	200
CCC1(c2cccc(C)c2)Oc2ccccc2-n2cccc2C1=O (configuration not stated)	CC50	>	1000
